Entry source: PubChem BioAssay AID1159580

Would you kindly list normalized growth for each of these molecules?
- measurement-description: chemical genetic growth profiling, strain panel (AID 1159580);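 further: tested at 20 µM; growth read once vehicle control cultures reached saturation at 30 °C; 1 = growth at the plate median or of vehicle wells; lower values mean less growth of the strain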
- experimental-setup: S. cerevisiae deletion strains, growth OD, locus YAL040C, strain CLN3, hits give low values
Hit rate of the full screen: of about 5,500 compounds, about 2,000 (36%) were called active. Roughly 18% stayed inconclusive and do not appear here. This is one part of the list.
Number only, no unit.

Q: What value of normalized growth has been reported for the following molecule? CCCCCC(O)c1cccc(OCc2ccc3ccccc3n2)c1 (stereo not drawn)
A: 0.958

Q: What value of normalized growth has been reported for the following molecule? NCCCNCCSP(=O)(O)O
A: 1

Q: What value of normalized growth has been reported for the following molecule? CC(C)=CCC/C(C)=C/CC/C(C)=C/CSc1ccccc1C(=O)O
A: 1.04

Q: What value of normalized growth has been reported for the following molecule? CCCN(CCC)C1Cc2cc(OC)c(OC)cc2C1
A: 1.05

Q: What value of normalized growth has been reported for the following molecule? C[C@]12CC[C@H]3[C@@H](CCC4C[C@H](O)CC[C@@]43C)[C@@H]1CC[C@@H]2O (stereo partly drawn)
A: 1.02

Q: What value of normalized growth has been reported for the following molecule? CC(=O)NCCc1c[nH]c2ccc(O)cc12
A: 1

Q: What value of normalized growth has been reported for the following molecule? c1ccc(CN2CCC3(CCCc4ccccc43)CC2)cc1
A: 1.02

Q: What value of normalized growth has been reported for the following molecule? Clc1ccc(C(c2ccc(Cl)cc2)n2cc[n+](CC(OCc3ccc(Cl)cc3Cl)c3ccc(Cl)cc3Cl)c2)cc1 (stereo not drawn)
A: 0.071

Q: What value of normalized growth has been reported for the following molecule? CC(=O)[C@H]1CCC2C3CC[C@H]4C[C@H](O)CC[C@]4(C)C3CC[C@@]21C (stereo partly drawn)
A: 0.979

Q: What value of normalized growth has been reported for the following molecule? CNc1ccc2oc(C[C@H]3O[C@@]4(CC[C@H]3C)O[C@H]([C@H](C)C(=O)c3ccc[nH]3)[C@H](C)C[C@H]4C)nc2c1C(=O)O
A: 0.929

Q: What value of normalized growth has been reported for the following molecule? NC(=O)c1ncn(C2OC(CO)C(O)C2O)n1 (stereo not drawn)
A: 1.01

Q: What value of normalized growth has been reported for the following molecule? NC(N)=NCCSSCCN=C(N)N
A: 0.948

Q: What value of normalized growth has been reported for the following molecule? C[C@]12CCC3C(CC[C@H]4C[C@H](O)CC[C@]34C)C1CC[C@@H]2C(=O)CO (stereo partly drawn)
A: 1.08

---

Would you kindly list normalized growth for each of these compounds?
- measurement-description: chemical genetic growth profiling, strain panel (AID 1159580);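 further: tested at 20 µM; growth read once vehicle control cultures reached saturation at 30 °C; 1 = growth at the plate median or of vehicle wells; lower values mean less growth of the strain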
- experimental-setup: S. cerevisiae deletion strains, growth OD, locus YNL153C, strain GIM3, hits give low values
About 2,000 (36%) of roughly 5,500 compounds were called active. About 18% were inconclusive and are not listed. Some of the results follow.
Number only, no unit.

Q: What value of normalized growth has been reported for the following compound? N#Cc1cccc(CSC2=NCN(C3CC3)CN2)c1
A: 0.997

Q: What value of normalized growth has been reported for the following compound? CN(C)c1ccc(-c2n[nH]c(=O)c3ccccc23)cc1[N+](=O)[O-]
A: 0.979

Q: What value of normalized growth has been reported for the following compound? O=c1[nH]c(=O)n(C2C[C@H](O)[C@@H](CO)O2)cc1C(F)(F)F (stereo not given in full)
A: 0.992

Q: What value of normalized growth has been reported for the following compound? CC(=O)O[C@H]1C[C@@H](OC(C)=O)C(C)(C)C2C[C@@H](O)[C@]3(C)C(CC[C@@]4(C)[C@H](c5ccoc5)OC(=O)[C@H]5O[C@]543)[C@]21C (stereo not given in full)
A: 1.01

Q: What value of normalized growth has been reported for the following compound? CCN1CN=C(SCc2ccc(Br)cc2)NC1
A: 0.986

Q: What value of normalized growth has been reported for the following compound? COc1ccc(CCC(=O)c2c(O)cc(O[C@@H]3O[C@H](CO)C(O)[C@H](O)C3O[C@@H]3O[C@@H](C)[C@H](O)[C@@H](O)[C@H]3O)cc2O)cc1O (stereo not given in full)
A: 0.988

Q: What value of normalized growth has been reported for the following compound? O=C1CSCC(=O)N1c1ccc(F)c(Cl)c1
A: 0.997

Q: What value of normalized growth has been reported for the following compound? CC(N)c1cccc(Cl)c1Cl (stereo not given)
A: 0.972

Q: What value of normalized growth has been reported for the following compound? NC1(C(=O)O)CCCCC1
A: 0.982

Q: What value of normalized growth has been reported for the following compound? O=S(=O)(NCCc1ccncc1)c1cc(C(F)(F)F)cc(C(F)(F)F)c1
A: 0.994
